- System Tested: p62^cplx-associated PI3-kinase (100-kD catalytic subunit)
- Protocol Notes: PI3-kinase lipid kinase assay
Quantity Kind: IC50

For the molecule shown here, COC[C@H]1OC(=O)c2coc3c2[C@@]1(C)C1=C(C3=O)[C@@H]2CCC(=O)[C@@]2(C)C[C@H]1OC(C)=O , give the reported IC50.
~3.5 µM
